The measurements presented in this section are drawn from ChEMBL document CHEMBL1201862.

- Test system: NCI-H522
- method description: NCI tumour cell line growth inhibition, 48 h
Calls of active or inactive are those of the source. Cut-off read from the data, not from the text of the source: active = GI50 up to about 1.1 µM and inactive = higher.
A correct response names exactly one class from YES (active), NO (inactive)

What is the recorded call for this compound in the test? "O=C(CC(=O)Nc1ccc(Cl)cc1)NNCC(=O)Nc1nc(-c2ccccc2)cs1"
NO

Look up the recorded call for "CNc1cccc(-c2cc(O)c3cc4c(cc3n2)OCO4)c1" in this test.
YES

Per the records of this test, what outcome belongs to "S=C(N/N=C(\C(=N/NC(=S)N1CCCCC1)c1ccccn1)c1ccccn1)N1CCCCC1" ?
NO

Please indicate how the test categorized CCCNC(=O)CCC(C)C1CCC2C3C(C[C@H](OC(C)=O)[C@]12C)[C@@]1(C)CCC2(C[C@H]1C[C@H]3OC(C)=O)OOC1(CC[C@]3(C)C4C[C@H](OC(C)=O)[C@]5(C)C(C(C)CCC(=O)NCCC)CCC5C4[C@H](OC(C)=O)C[C@@H]3C1)OO2 (some centres undefined) .
NO

Check the results log: what was the call for CC(=O)OC1COC(Nc2nc(NCc3ccccc3)n(C)c(=O)c2N=O)C(OC(C)=O)C1OC(C)=O (centres undefined) ?
NO

Which outcome did this test record for the compound O=C(O)C1C2CCC(O2)C1C(=O)N1CCCCC1 (centres undefined) ?
NO

# fetch the recorded call for "COc1ccc(/C=C/c2cnccn2)cc1OC" here
NO

Look up the recorded call for "C/C(=N/NC(=S)N(Cc1ccccn1)Cc1ccccn1)c1cnccn1" in this test.
YES

Please let me know the test result on file for NC(=O)c1coc(C2OC(CO)C(O)C2O)n1 (centres undefined) .
NO
